Where do the numbers come from? From PubChem BioAssay AID1963840.

Tested on: 695427-040-R-J1-PDC complex spheroid viability;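 further: spheroids exposed to compounds for seven days; 100% = DMSO vehicle control viability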
PROTOCOL_DETAILS: Anticancer human tumor 695427-040-R-J1-PDC patient-derived colon adenocarcinoma cell line growth inhibition [POLQ]
CONDITION_DETAILS: second compound 1 µM; first compound 3.16 µM; stronger effect = lower value
Listed here are molecules together with their documented viability, T/C.
QUANTITY: viability, T/C (%)

[[record]]
molecule = "O=C(Nc1ccc(O)c(NS(=O)(=O)c2ccc(F)cc2)c1)c1ccc(-c2ccccc2)cc1 + Cc1cccc(N(C)C(=O)C2C(O)CCN2c2nc(C)cc(C(F)(F)F)c2C#N)c1"
target_system = "695427-040-R-J1-PDC complex spheroid viability"
quantity = "viability, T/C"
experimental_result = 115

[[record]]
molecule = "C#Cc1c(F)ccc2cc(O)cc(-c3ncc4c(N5CC6CCC(C5)N6)nc(OCC56CCCN5CC(F)C6)nc4c3F)c12 (configuration not stated) + Cc1cccc(N(C)C(=O)C2C(O)CCN2c2nc(C)cc(C(F)(F)F)c2C#N)c1"
target_system = "695427-040-R-J1-PDC complex spheroid viability"
quantity = "viability, T/C"
experimental_result = 89.2

[[record]]
molecule = "COc1cc2cc(C(=O)CCC(=O)O)sc2cc1OC + Nc1ccc(C#CCN(C(=O)Cc2ncc(C(F)(F)F)cc2C(F)(F)F)c2ccc(F)cc2)nn1"
target_system = "695427-040-R-J1-PDC complex spheroid viability"
quantity = "viability, T/C"
experimental_result = 120

[[record]]
molecule = "C#Cc1c(F)ccc2cc(O)cc(-c3ncc4c(N5CC6CCC(C5)N6)nc(OCC56CCCN5CC(F)C6)nc4c3F)c12 (configuration not stated) + Nc1ccc(C#CCN(C(=O)Cc2ncc(C(F)(F)F)cc2C(F)(F)F)c2ccc(F)cc2)nn1"
target_system = "695427-040-R-J1-PDC complex spheroid viability"
quantity = "viability, T/C"
experimental_result = 103

[[record]]
molecule = "CC1COCCN1c1cc(C2(S(C)(=N)=O)CC2)nc(-c2ccnc3[nH]ccc23)n1 (configuration not stated) + COC1C(OC(N)=O)C(O)C(Oc2ccc3c(O)c(NC(=O)c4ccc(O)c(CC=C(C)C)c4)c(=O)oc3c2C)OC1(C)C"
target_system = "695427-040-R-J1-PDC complex spheroid viability"
quantity = "viability, T/C"
experimental_result = 107

[[record]]
molecule = "O=C(c1cc(Cc2n[nH]c(=O)c3ccccc23)ccc1F)N1CCN(C(=O)C2CC2)CC1 + COC1C(OC(N)=O)C(O)C(Oc2ccc3c(O)c(NC(=O)c4ccc(O)c(CC=C(C)C)c4)c(=O)oc3c2C)OC1(C)C"
target_system = "695427-040-R-J1-PDC complex spheroid viability"
quantity = "viability, T/C"
experimental_result = 117

[[record]]
molecule = "CCCS(=O)(=O)Nc1ccc(F)c(C(=O)c2c[nH]c3ncc(-c4ccc(Cl)cc4)cc23)c1F + Cc1cccc(N(C)C(=O)C2C(O)CCN2c2nc(C)cc(C(F)(F)F)c2C#N)c1"
target_system = "695427-040-R-J1-PDC complex spheroid viability"
quantity = "viability, T/C"
experimental_result = 127

